variants and their reported normalized RNA/DNA level with ligand (log10)
B1: library; a variant is named by its letters at N, in order (parent)
chain: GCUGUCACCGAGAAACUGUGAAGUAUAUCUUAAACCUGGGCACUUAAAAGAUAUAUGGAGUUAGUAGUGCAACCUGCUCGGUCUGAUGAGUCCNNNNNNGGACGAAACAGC

Variants of: B1
Assay: normalized RNA/DNA level with ligand (relative to sTRSVctl = 100) (log10 (% of sTRSVctl)); HEK293T; ligand: cyclic di-GMP (c-di-GMP-II aptamer); ligand concentration (+) RNA-Seq: 1 mM; higher = less ribozyme self-cleavage, higher mRNA level
Conditions: reporter: mCherry (pCS4076), ligand present: yes
measured.parameter: normalized RNA/DNA level with ligand (log10)

residue_string="GCUGUCACCGAGAAACUGUGAAGUAUAUCUUAAACCUGGGCACUUAAAAGAUAUAUGGAGUUAGUAGUGCAACCUGCUCGGUCUGAUGAGUCCCCCAUUGGACGAAACAGC [CCCAUU]" numeric_readout=1.79
residue_string="GCUGUCACCGAGAAACUGUGAAGUAUAUCUUAAACCUGGGCACUUAAAAGAUAUAUGGAGUUAGUAGUGCAACCUGCUCGGUCUGAUGAGUCCAAUAAAGGACGAAACAGC [AAUAAA]" numeric_readout=1.69
residue_string="GCUGUCACCGAGAAACUGUGAAGUAUAUCUUAAACCUGGGCACUUAAAAGAUAUAUGGAGUUAGUAGUGCAACCUGCUCGGUCUGAUGAGUCCCGGCUGGGACGAAACAGC [CGGCUG]" numeric_readout=1.87
residue_string="GCUGUCACCGAGAAACUGUGAAGUAUAUCUUAAACCUGGGCACUUAAAAGAUAUAUGGAGUUAGUAGUGCAACCUGCUCGGUCUGAUGAGUCCAGUCCCGGACGAAACAGC [AGUCCC]" numeric_readout=1.87
residue_string="GCUGUCACCGAGAAACUGUGAAGUAUAUCUUAAACCUGGGCACUUAAAAGAUAUAUGGAGUUAGUAGUGCAACCUGCUCGGUCUGAUGAGUCCGACUGAGGACGAAACAGC [GACUGA]" numeric_readout=1.72
residue_string="GCUGUCACCGAGAAACUGUGAAGUAUAUCUUAAACCUGGGCACUUAAAAGAUAUAUGGAGUUAGUAGUGCAACCUGCUCGGUCUGAUGAGUCCCCACCUGGACGAAACAGC [CCACCU]" numeric_readout=1.8
residue_string="GCUGUCACCGAGAAACUGUGAAGUAUAUCUUAAACCUGGGCACUUAAAAGAUAUAUGGAGUUAGUAGUGCAACCUGCUCGGUCUGAUGAGUCCGCCCUCGGACGAAACAGC [GCCCUC]" numeric_readout=1.87
residue_string="GCUGUCACCGAGAAACUGUGAAGUAUAUCUUAAACCUGGGCACUUAAAAGAUAUAUGGAGUUAGUAGUGCAACCUGCUCGGUCUGAUGAGUCCGAGAGAGGACGAAACAGC [GAGAGA]" numeric_readout=1.72
residue_string="GCUGUCACCGAGAAACUGUGAAGUAUAUCUUAAACCUGGGCACUUAAAAGAUAUAUGGAGUUAGUAGUGCAACCUGCUCGGUCUGAUGAGUCCGUUCGCGGACGAAACAGC [GUUCGC]" numeric_readout=1.92
residue_string="GCUGUCACCGAGAAACUGUGAAGUAUAUCUUAAACCUGGGCACUUAAAAGAUAUAUGGAGUUAGUAGUGCAACCUGCUCGGUCUGAUGAGUCCAAAAUAGGACGAAACAGC [AAAAUA]" numeric_readout=1.69
residue_string="GCUGUCACCGAGAAACUGUGAAGUAUAUCUUAAACCUGGGCACUUAAAAGAUAUAUGGAGUUAGUAGUGCAACCUGCUCGGUCUGAUGAGUCCCGUCUAGGACGAAACAGC [CGUCUA]" numeric_readout=1.45
residue_string="GCUGUCACCGAGAAACUGUGAAGUAUAUCUUAAACCUGGGCACUUAAAAGAUAUAUGGAGUUAGUAGUGCAACCUGCUCGGUCUGAUGAGUCCUUAUCUGGACGAAACAGC [UUAUCU]" numeric_readout=1.85
residue_string="GCUGUCACCGAGAAACUGUGAAGUAUAUCUUAAACCUGGGCACUUAAAAGAUAUAUGGAGUUAGUAGUGCAACCUGCUCGGUCUGAUGAGUCCCAGAUUGGACGAAACAGC [CAGAUU]" numeric_readout=1.65
residue_string="GCUGUCACCGAGAAACUGUGAAGUAUAUCUUAAACCUGGGCACUUAAAAGAUAUAUGGAGUUAGUAGUGCAACCUGCUCGGUCUGAUGAGUCCUGUACGGGACGAAACAGC [UGUACG]" numeric_readout=1.87
residue_string="GCUGUCACCGAGAAACUGUGAAGUAUAUCUUAAACCUGGGCACUUAAAAGAUAUAUGGAGUUAGUAGUGCAACCUGCUCGGUCUGAUGAGUCCGAACAAGGACGAAACAGC [GAACAA]" numeric_readout=1.7
residue_string="GCUGUCACCGAGAAACUGUGAAGUAUAUCUUAAACCUGGGCACUUAAAAGAUAUAUGGAGUUAGUAGUGCAACCUGCUCGGUCUGAUGAGUCCUCUAUUGGACGAAACAGC [UCUAUU]" numeric_readout=1.78
residue_string="GCUGUCACCGAGAAACUGUGAAGUAUAUCUUAAACCUGGGCACUUAAAAGAUAUAUGGAGUUAGUAGUGCAACCUGCUCGGUCUGAUGAGUCCUUCCGUGGACGAAACAGC [UUCCGU]" numeric_readout=1.83
residue_string="GCUGUCACCGAGAAACUGUGAAGUAUAUCUUAAACCUGGGCACUUAAAAGAUAUAUGGAGUUAGUAGUGCAACCUGCUCGGUCUGAUGAGUCCGCAGGCGGACGAAACAGC [GCAGGC]" numeric_readout=1.71
residue_string="GCUGUCACCGAGAAACUGUGAAGUAUAUCUUAAACCUGGGCACUUAAAAGAUAUAUGGAGUUAGUAGUGCAACCUGCUCGGUCUGAUGAGUCCUAUCCGGGACGAAACAGC [UAUCCG]" numeric_readout=1.87
residue_string="GCUGUCACCGAGAAACUGUGAAGUAUAUCUUAAACCUGGGCACUUAAAAGAUAUAUGGAGUUAGUAGUGCAACCUGCUCGGUCUGAUGAGUCCCUAUACGGACGAAACAGC [CUAUAC]" numeric_readout=1.83
residue_string="GCUGUCACCGAGAAACUGUGAAGUAUAUCUUAAACCUGGGCACUUAAAAGAUAUAUGGAGUUAGUAGUGCAACCUGCUCGGUCUGAUGAGUCCAGUCUGGGACGAAACAGC [AGUCUG]" numeric_readout=1.76
residue_string="GCUGUCACCGAGAAACUGUGAAGUAUAUCUUAAACCUGGGCACUUAAAAGAUAUAUGGAGUUAGUAGUGCAACCUGCUCGGUCUGAUGAGUCCCCUGAGGGACGAAACAGC [CCUGAG]" numeric_readout=1.76
residue_string="GCUGUCACCGAGAAACUGUGAAGUAUAUCUUAAACCUGGGCACUUAAAAGAUAUAUGGAGUUAGUAGUGCAACCUGCUCGGUCUGAUGAGUCCAGGGCCGGACGAAACAGC [AGGGCC]" numeric_readout=1.93

Where these numbers come from: the supplement of paper PMC6757056
